# Test system: NOMO1
# Assay comment: cell viability relative to DMSO control; higher = less cytotoxic
# Setup conditions: RPMI 5 mM glucose + 10% dialyzed FBS; 48 h; 0.0211 µM
Quantity measured: cell viability (%)
Value expressed in %; do not type the unit.

Example cases with answers are listed next.
CCCCN(CCCC)CC(O)c1cc(Cl)cc2c1-c1ccc(Cl)cc1/C2=C/c1ccc(Cl)cc1 (stereo not drawn) : 104
COc1ccc2c(c1)[C@]13CCCCC1C(C2)N(C)CC3 (stereo partly drawn) : 119

Task item: Look up NOMO1 data: cell viability of Nc1ncnc2c1ncn2[C@@H]1O[C@H](CO)C[C@H]1O , then report it.
Reply: 103

---

# System: P12-Ichikawa
# Assay comment: cell viability relative to DMSO control; higher = less cytotoxic
# Setup conditions: RPMI 5 mM glucose + 10% FBS; 48 h; 0.0632 µM
Quantity measured: cell viability (%)
Kindly answer with a numeric value in %, unit omitted.

Task item: For P12-Ichikawa, give the measured cell viability of the entry O=C(c1ccccc1)c1ccc2n1CCC2C(=O)O (configuration not stated)
Reply: 120

Task item: State cell viability on P12-Ichikawa. Entry: Cc1cc2c(C(N)=O)cccc2n1-c1nc2c(c(NCc3ccccc3)n1)COCC2
Reply: 91.2

Task item: Print P12-Ichikawa cell viability for COc1cccc2c1C(=O)c1c(O)c3c(c(O)c1C2=O)C[C@@](O)(C(=O)CO)C[C@@H]3O[C@H]1C[C@H](N)[C@H](O)[C@H](C)O1 .
Reply: 113

Task item: Jot down cell viability (P12-Ichikawa) of COc1ccc(C(=O)c2c(C)n(CCN3CCOCC3)c3cc(I)ccc23)cc1 .
Reply: 129

Task item: Find the measured cell viability of Cc1ccnc2c1NC(=O)c1cccnc1N2C1CC1 with P12-Ichikawa as test system.
Reply: 110

Task item: Supply cell viability measured with P12-Ichikawa for CN1\C=N/C2=CC=C(NC3=CC(=CC=C3C)NC(=O)C4=CC(=CC=C4)C(C)(C)C#N)C=C2C1=O .
Reply: 96.7

Task item: # return cell viability for Nc1c2c(nc3ccccc13)CCCC2 , test system: P12-Ichikawa
Reply: 120

Task item: Recall the reported cell viability of CN1CCCN(CC1)C2=CC=C3C(=O)\C(=C/4SC5=C(C=CC=C5)N4C3=N2)C(=O)NCC6=CN=C(C)C=N6 on P12-Ichikawa and write it down.
Reply: 117

Task item: Enter cell viability (test system P12-Ichikawa) for O=C(O)c1cccnc1Nc1cccc(C(F)(F)F)c1
Reply: 124

Task item: Check P12-Ichikawa data and give cell viability for Cc1csc(-c2nnc(Nc3ccc(Oc4ncccc4-c4ccnc(N)n4)cc3)c3ccccc23)c1 .
Reply: 20.1

Task item: State, for P12-Ichikawa, measured cell viability of the compound listed here: CC12CC3CC(C)(C1)CC(N)(C3)C2
Reply: 138

Task item: Output reported cell viability of the compound COc1ccc2c(c1)[C@]13CCCCC1C(C2)N(C)CC3 (some centres not stated) on P12-Ichikawa.
Reply: 128

Task item: Give measured cell viability for CCCCCCCCCCCCCC(=O)N[C@H](CO)[C@H](O)c1ccc([N+](=O)[O-])cc1 (P12-Ichikawa).
Reply: 102

Task item: State cell viability on P12-Ichikawa. Entry: CC[C@@H]([C@H](C)O)n1ncn(-c2ccc(N3CCN(c4ccc(OCC5CO[C@@](Cn6cncn6)(c6ccc(F)cc6F)C5)cc4)CC3)cc2)c1=O (some centres not stated)
Reply: 95

Task item: # assay system P12-Ichikawa: give cell viability of CC#CCn1c(N2CCC[C@@H](N)C2)nc2c1c(=O)n(Cc1nc(C)c3ccccc3n1)c(=O)n2C
Reply: 96.8

Task item: GET cell viability | system: P12-Ichikawa | item: O=C(O)c1cc(/N=N/c2ccc([S+](=O)([O-])Nc3ccccn3)cc2)ccc1O
Reply: 119

Task item: Identify measured cell viability obtained with P12-Ichikawa for Nc1ncnc2c1ncn2[C@@H]1O[C@H](CO)C[C@H]1O .
Reply: 87.7
